Here the recorded IC50 is given for each entry.
Target: glucagon receptor (Rattus norvegicus)
Sequence (P30082 27-485): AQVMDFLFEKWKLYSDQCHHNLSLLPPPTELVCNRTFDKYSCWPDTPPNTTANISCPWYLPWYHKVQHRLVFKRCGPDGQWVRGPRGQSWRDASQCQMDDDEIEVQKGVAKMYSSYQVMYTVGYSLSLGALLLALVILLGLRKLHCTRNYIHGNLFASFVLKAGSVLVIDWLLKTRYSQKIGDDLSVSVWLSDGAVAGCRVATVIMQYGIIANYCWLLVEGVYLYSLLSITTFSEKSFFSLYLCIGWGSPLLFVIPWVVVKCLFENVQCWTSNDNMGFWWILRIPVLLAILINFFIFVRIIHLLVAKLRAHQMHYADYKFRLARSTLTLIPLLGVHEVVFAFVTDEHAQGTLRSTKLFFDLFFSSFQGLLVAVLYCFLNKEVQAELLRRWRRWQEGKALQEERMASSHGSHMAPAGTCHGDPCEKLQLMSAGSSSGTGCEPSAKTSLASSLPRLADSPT
Experiment: Experiment for glucagon binding inhibition, rat hepatic membrane (125I-glucagon)
Conditions: male SD rat hepatic membrane, 125I-glucagon 50 pM, 25° C. for 30 minutes; read-out: Glucagon binding inhibitory activity IC50 (nM) Rat
metric: IC50

structure-smiles-string	target-or-test-system	reported-measurement
CC(C)c1cccc(-c2ccoc2C(=O)NNC(=O)c2ccc(O)c([N+](=O)[O-])c2)c1	glucagon receptor (Rattus norvegicus)	120 nM
O=C(NNC(=O)c1occc1-c1cccc(-c2ccccc2)c1)c1ccc(O)c([N+](=O)[O-])c1	glucagon receptor (Rattus norvegicus)	95 nM
CCCCCCc1cccc(-c2ccoc2C(=O)NNC(=O)c2ccc(O)c([N+](=O)[O-])c2)c1	glucagon receptor (Rattus norvegicus)	26 nM
Cc1cccc(COc2cccc(-c3ccoc3C(=O)NNC(=O)c3ccc(O)c([N+](=O)[O-])c3)c2)c1	glucagon receptor (Rattus norvegicus)	33 nM

###

Here the recorded IC50 is given for each entry.
Target: glucagon receptor (Mus musculus, UniProt Q61606)
Sequence (Q61606 27-485): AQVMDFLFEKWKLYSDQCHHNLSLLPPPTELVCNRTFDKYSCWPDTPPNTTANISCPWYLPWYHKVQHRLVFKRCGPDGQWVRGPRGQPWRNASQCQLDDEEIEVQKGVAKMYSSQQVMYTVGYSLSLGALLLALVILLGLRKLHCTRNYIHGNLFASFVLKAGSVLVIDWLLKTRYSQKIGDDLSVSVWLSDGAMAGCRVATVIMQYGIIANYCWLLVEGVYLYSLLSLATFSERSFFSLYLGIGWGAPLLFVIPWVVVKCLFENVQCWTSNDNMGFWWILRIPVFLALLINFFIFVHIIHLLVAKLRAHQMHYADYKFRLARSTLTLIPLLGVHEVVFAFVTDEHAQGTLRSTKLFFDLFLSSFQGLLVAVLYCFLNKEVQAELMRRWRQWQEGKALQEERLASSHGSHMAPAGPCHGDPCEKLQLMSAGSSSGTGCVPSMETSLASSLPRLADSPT
Assay: Experiment for glucagon binding inhibition, mouse hepatic membrane (125I-glucagon)
Settings: male ddY mouse hepatic membrane, 125I-glucagon 50 pM, 25° C. for 30 minutes; read-out: Glucagon binding inhibitory activity IC50 (nM) Mouse
Method: The preparation of membrane from mouse and rat livers was carried out according to the method described in Bioorg. Med. Chem. Lett. 1992, 12, 915-918 in this experiment and ^125I-glucagon binding activity was measured with these membranes as glucagon receptor's samples. […] The filter was washed 3 times with 50 mM Tris-HCl buffer (pH 7.2), and the radioactivity of the filter was measured by a γ counter (ARC-360, Aloka Co., Ltd.). […]
metric: IC50 (nM)

structure-smiles-string	metric	reported-measurement
N#Cc1cc(C(=O)NNC(=O)c2occc2-c2cccc(OCc3ccccc3)c2)ccc1O	IC50	52
Cc1cccc(Cc2cccc(-c3ccoc3C(=O)NNC(=O)c3ccc(O)c([N+](=O)[O-])c3)c2)c1	IC50	18
O=C(NNC(=O)c1occc1-c1ccccc1)c1ccc(O)c(C(F)(F)F)c1	IC50	350
Cc1cccc(COc2ccc(-c3ccoc3C(=O)NNC(=O)c3ccc(O)c([N+](=O)[O-])c3)cc2)c1	IC50	39
CS(=O)(=O)c1ccc(COc2cccc(-c3ccoc3C(=O)NNC(=O)c3ccc(O)c(C#N)c3)c2)cc1	IC50	48
Cn1ccc2cc(-c3ccoc3C(=O)NNC(=O)c3ccc(O)c([N+](=O)[O-])c3)ccc21	IC50	270
N#Cc1cc(C(=O)NNC(=O)c2occc2-c2ccccc2OCc2ccccc2)ccc1O	IC50	130
CC(C)c1ccc(-c2ccoc2C(=O)NNC(=O)c2ccc(O)c([N+](=O)[O-])c2)cc1	IC50	18
O=C(NNC(=O)c1occ(-c2ccccc2)c1-c1ccccc1)c1ccc(O)c(C(F)(F)F)c1	IC50	390
O=C(NNC(=O)c1occc1-c1cccc(OCCc2ccccc2)c1)c1ccc(O)c([N+](=O)[O-])c1	IC50	35
N#Cc1cc(C(=O)NNC(=O)c2occ(COC(=O)NCCc3ccccc3)c2-c2ccccc2)ccc1O	IC50	380
O=C(NNC(=O)c1occc1-c1cccc(Cc2ccccc2)c1)c1ccc(O)c([N+](=O)[O-])c1	IC50	3
CC(C)COc1cccc(-c2ccoc2C(=O)NNC(=O)c2ccc(O)c([N+](=O)[O-])c2)c1	IC50	34
N#Cc1cc(C(=O)NNC(=O)c2occc2-c2ccccc2Cc2ccccc2)ccc1O	IC50	310
N#Cc1cc(C(=O)NNC(=O)c2occc2-c2ccccc2Oc2ccccc2)ccc1O	IC50	180
CCCCCc1ccc(-c2ccoc2C(=O)NNC(=O)c2ccc(O)c([N+](=O)[O-])c2)cc1	IC50	8.6

###

Here the recorded melting point is given for each entry.

compound	melting point
CC=CCOc1cccc(-c2ccoc2C(=O)NNC(=O)c2ccc(O)c([N+](=O)[O-])c2)c1 [Example 198]	113 to 115 °C
Cc1cc(C)cc(COc2cccc(-c3ccoc3C(=O)NNC(=O)c3ccc(O)c([N+](=O)[O-])c3)c2)c1 [Example 223]	178 to 180 °C
Cc1cccc(-c2ccoc2C(=O)NNC(=O)c2ccc(O)c([N+](=O)[O-])c2)c1 [Example 145]	126 to 128 °C
CCCCCOc1ccc(-c2ccoc2C(=O)NNC(=O)c2ccc(O)c(F)c2)cc1 [Example 243]	103 to 106 °C
CS(=O)(=O)Oc1cccc(-c2ccoc2C(=O)NNC(=O)c2ccc(O)c([N+](=O)[O-])c2)c1	170 to 171 °C
CCCCOc1cccc(-c2ccoc2C(=O)NNC(=O)c2ccc(O)c(C#N)c2)c1 [Example 107]	186 to 188 °C
O=C(NNC(=O)c1occc1-c1cccc(Cc2ccccc2Cl)c1)c1ccc(O)c([N+](=O)[O-])c1 [Example 225]	97 to 99 °C
O=C(NNC(=O)c1occ(-c2ccccc2)c1-c1ccccc1)c1ccc(O)c(-c2ccccc2)c1	217 to 218 °C
O=C(NNC(=O)c1occc1-c1cccc(-c2ccccc2)c1)c1ccc(O)c([N+](=O)[O-])c1 [Example 218]	143 to 147 °C
O=C(NNC(=O)c1occ(-c2ccccc2)c1-c1ccccc1)c1ccc(O)cc1O	285 to 288 °C
Cc1ccccc1COc1ccc(-c2ccoc2C(=O)NNC(=O)c2ccc(O)c([N+](=O)[O-])c2)cc1 [Example 213]	177 to 179 °C
CS(=O)(=O)c1ccc(COc2cccc(-c3ccoc3C(=O)NNC(=O)c3ccc(O)c([N+](=O)[O-])c3)c2)cc1 [Example 120]	114 to 117 °C
O=C(NNC(=O)c1occc1-c1ccc(OCc2ccccc2)cc1)c1ccc(O)c([N+](=O)[O-])c1 [Example 245]	163 to 164 °C
O=C(NNC(=O)c1occc1-c1ccc2ccccc2c1)c1ccc(O)c([N+](=O)[O-])c1 [Example 217]	135 to 139 °C
O=C(NNC(=O)c1occc1-c1cccc(CCc2ccccc2)c1)c1ccc(O)c([N+](=O)[O-])c1 [Example 232]	149 to 152 °C
O=C(NNC(=O)c1occc1-c1ccccc1)c1ccc(O)c(C(F)(F)F)c1 [Example 193]	117 to 121 °C

###

Here the recorded melting point is given for each entry.
metric: melting point

compound	reported-measurement
CC(=O)N(Cc1ccccc1)c1cccc(-c2ccoc2C(=O)NNC(=O)c2ccc(O)c(C#N)c2)c1	221 to 222 °C
CCCCOc1cccc(-c2ccoc2C(=O)NNC(=O)c2ccc(O)c([N+](=O)[O-])c2)c1 [Example 181]	135 to 138 °C
CCc1ccc(-c2ccoc2C(=O)NNC(=O)c2ccc(O)c([N+](=O)[O-])c2)cc1 [Example 156]	189 to 191 °C
Cc1ccc(COc2ccc(-c3ccoc3C(=O)NNC(=O)c3ccc(O)c([N+](=O)[O-])c3)cc2)cc1 [Example 211]	184 to 185 °C
Cc1ccc(C)c(COc2cccc(-c3ccoc3C(=O)NNC(=O)c3ccc(O)c([N+](=O)[O-])c3)c2)c1 [Example 127]	131 to 132 °C
O=C(NNC(=O)c1occc1-c1cccc(OCCc2ccccc2)c1)c1ccc(O)c([N+](=O)[O-])c1 [Example 209]	90 to 94 °C
COc1ccc(C(=O)NNC(=O)c2occ(-c3ccccc3)c2-c2ccccc2)cc1OC	181 to 184 °C
O=C(NNC(=O)c1oc(Br)cc1-c1ccccc1)c1ccc(O)c([N+](=O)[O-])c1 [Example 222]	174 to 176 °C
CCc1coc(C(=O)NNC(=O)c2ccc(O)c(C#N)c2)c1-c1ccccc1	186 to 188 °C
Cc1cccc(Cc2cccc(-c3ccoc3C(=O)NNC(=O)c3ccc(O)c([N+](=O)[O-])c3)c2)c1 [Example 235]	149 to 151 °C
COc1ccc(COc2cccc(-c3ccoc3C(=O)NNC(=O)c3ccc(O)c([N+](=O)[O-])c3)c2)cn1 [Example 164]	180 to 181 °C
O=C(NNC(=O)c1occ(-c2ccccc2)c1-c1ccccc1)c1ccc(O)c(O)c1	242 to 244 °C
CCCCCCOc1cccc(-c2ccoc2C(=O)NNC(=O)c2ccc(O)c([N+](=O)[O-])c2)c1 [Example 184]	124 to 126 °C
CCCCCOc1cccc(-c2ccoc2C(=O)NNC(=O)c2ccc(O)c([N+](=O)[O-])c2)c1 [Example 182]	96 to 99 °C
Cc1ccc(COc2cccc(-c3ccoc3C(=O)NNC(=O)c3ccc(O)c([N+](=O)[O-])c3)c2)cc1 [Example 126]	159 to 161 °C
CCCc1ccc(-c2ccoc2C(=O)NNC(=O)c2ccc(O)c([N+](=O)[O-])c2)cc1 [Example 160]	174 to 176 °C
Cc1ccc(COc2cccc(-c3ccoc3C(=O)NNC(=O)c3ccc(O)c([N+](=O)[O-])c3)c2)c(C)c1 [Example 128]	172 to 173 °C

###

Molecular target: glucagon receptor (Mus musculus, UniProt Q61606)
Assay: Experiment for glucagon binding inhibition, mouse hepatic membrane (125I-glucagon)
Settings: male ddY mouse hepatic membrane, 125I-glucagon 50 pM, 25° C. for 30 minutes; read-out: Glucagon binding inhibitory activity IC50 (nM) Mouse
Here the recorded IC50 is given for each entry.

compound	IC50 (nM)
N#Cc1cc(C(=O)NNC(=O)c2occ(-c3ccccc3)c2-c2ccccc2)ccc1O [Example 18]	120
CCCCCOc1ccc(-c2ccoc2C(=O)NNC(=O)c2ccc(O)c(F)c2)cc1 [Example 243]	290
N#Cc1cc(C(=O)NNC(=O)c2occ(C=CCCc3ccccc3)c2-c2ccccc2)ccc1O [Example 59]	84
CC(C)=CCOc1cccc(-c2ccoc2C(=O)NNC(=O)c2ccc(O)c([N+](=O)[O-])c2)c1 [Example 196]	63
Cc1ccc(COc2cccc(-c3ccoc3C(=O)NNC(=O)c3ccc(O)c([N+](=O)[O-])c3)c2)c(C)c1 [Example 128]	2.8
CC(c1ccccc1)c1cccc(-c2ccoc2C(=O)NNC(=O)c2ccc(O)c([N+](=O)[O-])c2)c1 (stereo not drawn) [Example 230]	120
Cc1ccc(COc2cccc(-c3ccoc3C(=O)NNC(=O)c3ccc(O)c([N+](=O)[O-])c3)c2)cc1C [Example 129]	6.1
CCCCCOc1ccc(-c2ccoc2C(=O)NNC(=O)c2ccc(O)c([N+](=O)[O-])c2)cc1 [Example 159]	60
N#Cc1cc(C(=O)NNC(=O)c2occc2-c2ccccc2OCCc2ccccc2)ccc1O [Example 12]	170
CCCCCOc1cccc(-c2ccoc2C(=O)NNC(=O)c2ccc(O)c([N+](=O)[O-])c2)c1 [Example 182]	50
CS(=O)(=O)c1ccc(COc2cccc(-c3ccoc3C(=O)NNC(=O)c3ccc(O)c([N+](=O)[O-])c3)c2)cc1 [Example 120]	27
N#Cc1cc(C(=O)NNC(=O)c2occ(-c3ccc(F)cc3)c2-c2ccc(F)cc2)ccc1O [Example 45]	120
O=C(NNC(=O)c1occc1-c1cccc(-c2ccccc2)c1)c1ccc(O)c([N+](=O)[O-])c1 [Example 218]	56
CC(C)CCOc1cccc(-c2ccoc2C(=O)NNC(=O)c2ccc(O)c([N+](=O)[O-])c2)c1 [Example 180]	46
Cc1cc(C)c(C)c(COc2ccc(-c3ccoc3C(=O)NNC(=O)c3ccc(O)c(C#N)c3)cc2)c1C [Example 15]	170
